biological target: Jak2 (UniProt O60674); assay: phosphorylation enrichment, bacterial display (enrichment ratio); higher = better substrate or ligand; peptides without Tyr show the background;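 further: 11-residue human phosphosite peptides and single-mutation variants displayed on the E. coli surface, counted by deep sequencing, each peptide's frequency after selection divided by its frequency in the unselected input library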;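 further: frequency after pTyr selection over input frequency; kinase dosed for 20-30% of maximal phosphorylation in three min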
Sequence (O60674 whole entry, looked up): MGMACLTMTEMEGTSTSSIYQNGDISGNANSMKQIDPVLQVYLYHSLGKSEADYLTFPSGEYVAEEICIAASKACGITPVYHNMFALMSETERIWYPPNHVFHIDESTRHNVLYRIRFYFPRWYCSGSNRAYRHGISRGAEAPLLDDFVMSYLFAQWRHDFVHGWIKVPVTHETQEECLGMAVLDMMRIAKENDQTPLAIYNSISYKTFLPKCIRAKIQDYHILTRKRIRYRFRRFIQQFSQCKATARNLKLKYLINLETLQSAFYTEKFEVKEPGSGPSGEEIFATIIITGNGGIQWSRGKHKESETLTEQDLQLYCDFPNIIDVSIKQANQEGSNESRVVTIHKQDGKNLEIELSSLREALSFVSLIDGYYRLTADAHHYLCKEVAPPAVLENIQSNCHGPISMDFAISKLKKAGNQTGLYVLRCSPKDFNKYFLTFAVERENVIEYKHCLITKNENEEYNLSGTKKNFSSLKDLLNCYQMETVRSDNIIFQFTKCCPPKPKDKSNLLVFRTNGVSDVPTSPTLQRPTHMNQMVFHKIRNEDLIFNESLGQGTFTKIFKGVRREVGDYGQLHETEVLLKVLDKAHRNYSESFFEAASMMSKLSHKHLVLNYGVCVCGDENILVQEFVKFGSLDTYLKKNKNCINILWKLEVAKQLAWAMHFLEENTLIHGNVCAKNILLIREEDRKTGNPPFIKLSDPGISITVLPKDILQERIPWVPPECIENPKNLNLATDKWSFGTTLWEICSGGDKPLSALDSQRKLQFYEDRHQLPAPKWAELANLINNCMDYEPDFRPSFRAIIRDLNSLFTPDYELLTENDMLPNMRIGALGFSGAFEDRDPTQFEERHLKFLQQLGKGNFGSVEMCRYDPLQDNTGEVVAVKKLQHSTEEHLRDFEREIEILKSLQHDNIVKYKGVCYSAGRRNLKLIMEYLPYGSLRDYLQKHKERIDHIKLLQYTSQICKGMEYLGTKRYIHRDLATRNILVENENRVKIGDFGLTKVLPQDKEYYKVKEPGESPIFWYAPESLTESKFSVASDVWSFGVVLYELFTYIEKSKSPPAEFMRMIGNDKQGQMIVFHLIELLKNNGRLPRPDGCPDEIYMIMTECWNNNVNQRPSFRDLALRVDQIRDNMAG
ASSAY METRIC: phosphorylation enrichment

Q: Report phosphorylation enrichment from Jak2 (UniProt O60674) testing of LLNAIYLSAKR [SERPING1_Y294_W299R]
Result: 1.65

Q: Report phosphorylation enrichment from Jak2 (UniProt O60674) testing of DLDATYRPMFS [JUP_Y701_M697L_YF]
Result: 0.673

Q: Report phosphorylation enrichment from Jak2 (UniProt O60674) testing of FAKTQYPDVYA [CRX_Y63]
Result: 0.52

Q: Report phosphorylation enrichment from Jak2 (UniProt O60674) testing of SFLSYYTSHVQ [NEFL_Y443_P440L]
Result: 2.1

Q: Report phosphorylation enrichment from Jak2 (UniProt O60674) testing of AEEKEYHAEGG [EGFR_Y869]
Result: 0.908

Q: Report phosphorylation enrichment from Jak2 (UniProt O60674) testing of YSNVLYRPRGA [TMIGD2_Y197]
Result: 0.596

Q: Report phosphorylation enrichment from Jak2 (UniProt O60674) testing of LLVVLCKYRCY [PSEN1_Y154_Y154C]
Result: 0.786
